The measured values listed here are drawn from PubChem BioAssay AID1919009.

Test system: K24384-001-R-PDC complex spheroid growth
Assay: Anticancer human tumor K24384-001-R-PDC patient-derived pancreatic adenocarcinoma cell line growth inhibition [AhR]
Details: second compound 1 µM; first compound 1 µM; active compounds read low
From the text: Multicellular complex tumor spheroid response to aryl hydrocarbon receptor antagonists in combination with a variety of drugs and investigational agents in selected tumor cell lines […] Compounds. […] If the clinical Cmax for an agent had not been determined, the highest concentration tested was 10 microM (Table 1). […]
OUTCOME MEASURE: viability, T/C (%)
Express the result in % but write the number alone.

Take a look at these entries with their results.
COc1cc(C2c3cc4c(cc3C(OC3OC5COC(C)OC5C(O)C3O)C3COC(=O)C23)OCO4)cc(OC)c1O (stereo not given) + Cc1cncc(-c2nc(NCCc3c[nH]c4ccccc34)c3ncn(C(C)C)c3n2)c1 = 54.8
CC1(C)CCC(CN2CCN(c3ccc(C(=O)NS(=O)(=O)c4ccc(NCC5CCOCC5)c([N+](=O)[O-])c4)c(Oc4cnc5[nH]ccc5c4)c3)CC2)=C(c2ccc(Cl)cc2)C1 + Cc1cncc(-c2nc(NCCc3c[nH]c4ccccc34)c3ncn(C(C)C)c3n2)c1 = 122
CC1(C)CCC(CN2CCN(c3ccc(C(=O)NS(=O)(=O)c4ccc(NCC5CCOCC5)c([N+](=O)[O-])c4)c(Oc4cnc5[nH]ccc5c4)c3)CC2)=C(c2ccc(Cl)cc2)C1 + CC(CO)NC(=O)c1cc(-c2ccc(Cl)cc2)nn(-c2cnn(C)c2)c1=O = 115
CC1(C)CCC(CN2CCN(c3ccc(C(=O)NS(=O)(=O)c4ccc(NCC5CCOCC5)c([N+](=O)[O-])c4)c(Oc4cnc5[nH]ccc5c4)c3)CC2)=C(c2ccc(Cl)cc2)C1 + Cc1ccccc1N=Nc1ccc(NC(=O)c2ccnn2C)c(C)c1 = 112

Let's switch to this molecule now.
Memo: Nc1ccccc1NC(=O)c1ccc(CNC(=O)OCc2cccnc2)cc1 + Cc1ccccc1N=Nc1ccc(NC(=O)c2ccnn2C)c(C)c1 , reported viability, T/C: 60.2

---

Listed molecules paired with reported viability, T/C
system: K24384-001-R-PDC complex spheroid growth; test: Anticancer human tumor K24384-001-R-PDC cell line growth inhibition [AhR]; details: second compound 1 µM; first compound 3.16 µM; active compounds read low;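 further: percent of DMSO vehicle-treated spheroid viability set as 100%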
Numbers only here, please. The scale is %.

Completed entries (count: 8):
COc1cc(C2c3cc4c(cc3C(OC3OC5COC(C)OC5C(O)C3O)C3COC(=O)C23)OCO4)cc(OC)c1O (configuration not stated) + Cc1ccccc1N=Nc1ccc(NC(=O)c2ccnn2C)c(C)c1 = 33.9
COc1ccc([C@@H](O)c2cc(-c3ncnc4cc(N5CCOCC5)ccc34)c(F)cc2Cl)nn1 + Cc1ccccc1N=Nc1ccc(NC(=O)c2ccnn2C)c(C)c1 = 51.9
Nc1ccccc1NC(=O)c1ccc(CNC(=O)OCc2cccnc2)cc1 + Cc1ccccc1N=Nc1ccc(NC(=O)c2ccnn2C)c(C)c1 = 30.4
COc1cccc2c1C(=O)c1c(O)c3c(c(O)c1C2=O)CC(O)(C(=O)CO)CC3OC1CC(N)C(O)C(C)O1 (configuration not stated) + Cc1ccccc1N=Nc1ccc(NC(=O)c2ccnn2C)c(C)c1 = 2.46
CC1COCCN1c1cc(C2(S(C)(=N)=O)CC2)nc(-c2ccnc3[nH]ccc23)n1 (configuration not stated) + Cc1cncc(-c2nc(NCCc3c[nH]c4ccccc34)c3ncn(C(C)C)c3n2)c1 = 61.1
COc1cc(C2c3cc4c(cc3C(OC3OC5COC(C)OC5C(O)C3O)C3COC(=O)C23)OCO4)cc(OC)c1O (configuration not stated) + CC(CO)NC(=O)c1cc(-c2ccc(Cl)cc2)nn(-c2cnn(C)c2)c1=O = 36
CC1COCCN1c1cc(C2(S(C)(=N)=O)CC2)nc(-c2ccnc3[nH]ccc23)n1 (configuration not stated) + Cc1ccccc1N=Nc1ccc(NC(=O)c2ccnn2C)c(C)c1 = 38.8
O=C(c1cc(Cc2n[nH]c(=O)c3ccccc23)ccc1F)N1CCN(C(=O)C2CC2)CC1 + Cc1ccccc1N=Nc1ccc(NC(=O)c2ccnn2C)c(C)c1 = 66.2

Lookup result for COc1cc(Nc2ncc3c(n2)-c2ccc(Cl)cc2C(c2c(F)cccc2OC)=NC3)ccc1C(=O)O + Cc1ccccc1N=Nc1ccc(NC(=O)c2ccnn2C)c(C)c1 ; measured viability, T/C: 52.6

Short answer for O=C(c1cc(Cc2n[nH]c(=O)c3ccccc23)ccc1F)N1CCN(C(=O)C2CC2)CC1 + CC(CO)NC(=O)c1cc(-c2ccc(Cl)cc2)nn(-c2cnn(C)c2)c1=O : viability, T/C was 76

Briefly, viability, T/C measured for NS(=O)(=O)OCC1CC(n2ccc3c(NC4CCc5ccccc54)ncnc32)CC1O (configuration not stated) + CC(CO)NC(=O)c1cc(-c2ccc(Cl)cc2)nn(-c2cnn(C)c2)c1=O : 32.9

Documented viability, T/C of Nc1ccn(C2OC(CO)C(O)C2(F)F)c(=O)n1 (configuration not stated) + Cc1ccccc1N=Nc1ccc(NC(=O)c2ccnn2C)c(C)c1 : 21.2

---

system: K24384-001-R-PDC complex spheroid growth; test: Anticancer human tumor K24384-001-R-PDC cell line growth inhibition [AhR]; conditions: second compound 0.316 µM; first compound 10 µM; active compounds read low;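 further: percent of DMSO vehicle-treated spheroid viability set as 100%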
Entries annotated with measured viability, T/C
Numbers only; they are read as %.

Solved cases below.
CC1COCCN1c1cc(C2(S(C)(=N)=O)CC2)nc(-c2ccnc3[nH]ccc23)n1 (configuration not stated) + CC(CO)NC(=O)c1cc(-c2ccc(Cl)cc2)nn(-c2cnn(C)c2)c1=O = 46.2
CC1COCCN1c1cc(C2(S(C)(=N)=O)CC2)nc(-c2ccnc3[nH]ccc23)n1 (configuration not stated) + Cc1cncc(-c2nc(NCCc3c[nH]c4ccccc34)c3ncn(C(C)C)c3n2)c1 = 29.1
CC1COCCN1c1cc(C2(S(C)(=N)=O)CC2)nc(-c2ccnc3[nH]ccc23)n1 (configuration not stated) + Cc1ccccc1N=Nc1ccc(NC(=O)c2ccnn2C)c(C)c1 = 30.9
NS(=O)(=O)OCC1CC(n2ccc3c(NC4CCc5ccccc54)ncnc32)CC1O (configuration not stated) + Cc1ccccc1N=Nc1ccc(NC(=O)c2ccnn2C)c(C)c1 = 18.3
O=C(c1cc(Cc2n[nH]c(=O)c3ccccc23)ccc1F)N1CCN(C(=O)C2CC2)CC1 + Cc1ccccc1N=Nc1ccc(NC(=O)c2ccnn2C)c(C)c1 = 58
COc1ccc([C@@H](O)c2cc(-c3ncnc4cc(N5CCOCC5)ccc34)c(F)cc2Cl)nn1 + Cc1ccccc1N=Nc1ccc(NC(=O)c2ccnn2C)c(C)c1 = 37.2

Lab note: measured viability, T/C of Nc1ccccc1NC(=O)c1ccc(CNC(=O)OCc2cccnc2)cc1 + Cc1cncc(-c2nc(NCCc3c[nH]c4ccccc34)c3ncn(C(C)C)c3n2)c1 was 3.5

Entry O=C(C=Cc1cccc(S(=O)(=O)Nc2ccccc2)c1)NO + Cc1cncc(-c2nc(NCCc3c[nH]c4ccccc34)c3ncn(C(C)C)c3n2)c1 , viability, T/C reported as 4.55

Please fill in: viability, T/C reported for Nc1ccccc1NC(=O)c1ccc(CNC(=O)OCc2cccnc2)cc1 + Cc1ccccc1N=Nc1ccc(NC(=O)c2ccnn2C)c(C)c1 = 6.55

viability, T/C in this record for CC1(C)CCC(CN2CCN(c3ccc(C(=O)NS(=O)(=O)c4ccc(NCC5CCOCC5)c([N+](=O)[O-])c4)c(Oc4cnc5[nH]ccc5c4)c3)CC2)=C(c2ccc(Cl)cc2)C1 + Cc1ccccc1N=Nc1ccc(NC(=O)c2ccnn2C)c(C)c1 : 51.7

molecule Nc1ccn(C2OC(CO)C(O)C2(F)F)c(=O)n1 (configuration not stated) + CC(CO)NC(=O)c1cc(-c2ccc(Cl)cc2)nn(-c2cnn(C)c2)c1=O , viability, T/C observed: 27

The molecule identified as O=C(C=Cc1cccc(S(=O)(=O)Nc2ccccc2)c1)NO + CC(CO)NC(=O)c1cc(-c2ccc(Cl)cc2)nn(-c2cnn(C)c2)c1=O registered its viability, T/C at 1.86

---

tested on: K24384-001-R-PDC complex spheroid growth; assay: Anticancer human tumor K24384-001-R-PDC cell line growth inhibition [AhR]; details: second compound 1 µM; first compound 0.01 µM; active compounds read low;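 further: percent of DMSO vehicle-treated spheroid viability set as 100%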
OUTCOME MEASURE: viability, T/C

// solved cases for viability, T/C follow
Nc1ncn(C2CC(O)C(CO)O2)c(=O)n1 (stereo not drawn) + Cc1cncc(-c2nc(NCCc3c[nH]c4ccccc34)c3ncn(C(C)C)c3n2)c1 = 101%
CC[C@@]1(O)C(=O)OCc2c1cc1n(c2=O)Cc2cc3c(CN(C)C)c(O)ccc3nc2-1 + CC(CO)NC(=O)c1cc(-c2ccc(Cl)cc2)nn(-c2cnn(C)c2)c1=O = 71.2%

viability, T/C reading for CC1COCCN1c1cc(-c2ccnn2C)c2ccnc(-c3ccn[nH]3)c2n1 (stereo not drawn) + CC(CO)NC(=O)c1cc(-c2ccc(Cl)cc2)nn(-c2cnn(C)c2)c1=O : 121%
